target: T1, 人CD47蛋白胞外区融合蛋白(hCD47-ECD-6His) (human, UniProt Q08722 19-139, limits assumed); assay: ELISA, hCD47-ECD-6His coated, goat anti-mouse IgG-HRP
T1 construct: extracellular domain; Made in FreeStyle 293F cells, purified on a nickel column; not shown: linker peptide-6His (连接肽-6His)
T1 sequence (Q08722 19-139 limits assumed): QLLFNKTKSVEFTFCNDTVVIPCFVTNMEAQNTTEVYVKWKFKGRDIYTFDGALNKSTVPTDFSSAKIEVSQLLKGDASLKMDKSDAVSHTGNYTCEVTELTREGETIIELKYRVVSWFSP
Examples of binders with documented EC50 follow.
The figure you give is taken to be in µg/mL; do not add the unit.

Q) Param item = 抗人CD47单克隆抗体A6 (antibody, V domains shown) VH: QVQLQQSGAELVRPGASVTLSCKASGYSFTDSEMHWVKQTPVYGLEWTGVIDPETGNSAYNQKFKGKATLTADKSSNTAYMELRSLTSEDSAVYYCTRGGVFGYPFDYWGQGTTLTVSS VL: ENVLTQSPAIMAASLGQKVTMTCSATSSVRSSYLHWYQQKSGASPKPLIHRTSNLASGVPARFSGSGSGTSYSLTISSVEAEDDATYYCQQWRGYPYTFGGGTKLEIK ; retrieve measured EC50.
A) 0.01

Q) Consider the binder shown here: 抗人CD47单克隆抗体A2 (antibody, V domains shown) VH: EVQVQQSGPELVKPGASVKISCKASGYSFTGYFMNWVKQSHGKSLEWIGRINPYNGDTFYNQKFKGKATLTVDKSSSTAHMELLSLTSEDSAVYYCGRGGYGGMDYWGQGTSVTVSS VL: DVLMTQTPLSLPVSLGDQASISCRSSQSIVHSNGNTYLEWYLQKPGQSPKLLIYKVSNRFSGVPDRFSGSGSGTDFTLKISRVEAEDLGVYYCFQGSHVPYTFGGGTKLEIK What is its recorded EC50?
A) 0.007

Q) What value of EC50 has been reported for the following binder? 抗人CD47单克隆抗体A3 (antibody, V domains shown) VH: QVQLQQPGAELVRPGASVKLSCKASGHTFTNYWMNWIKQRPEQGLEWIGNIDPYDSETHYNQKFKDKAILTVGKSSSTAYMQLSSLTSEDSAVYYCAIWRGYALDYWGQGTSVTVSS VL: CDVQITQSPSYLAASPGETITINCRASKSISKFLAWYQEKPGKTNNLLIYSGSTLQSGIPSRFSGSGSGTDFTLTISSLEPEDFAMYYCQQHNEYPWTFGGGTKLEIK
A) 0.01

Next binder, please.
Q) Which EC50 value is on record for 抗人CD47单克隆抗体A1 (antibody, V domains shown) VH: EFQLQQSGPELVKPGASVKMSCKASGYTFTNYVLHWVKQKPGQGLEWIGYFNPYNDDSKYNEKFKGKATLTSDKSSSTAYMELSSLTSEDSAVYYCARGGYYSMDYWGQGTTVTVSS VL: DVMTQTPLSLPVSLGDQASISCRASQSLAHSNGYTYLQWYLQKPGQSPKLLIYKVSKRFSGVPDRFSGSGSGTDFTLKISRVEAEDLGVYFCSQSTHVPYTFGQGTKVEIK ?
A) 0.016
